tested on: Colon cancer organoid; assay: Targeting of F14 CAF-induced therapy resistance in O23 CRC organoid-stroma co-culture. Cell viability is reported without Gefitinib.; assay type: functional, Homo sapiens; details: Homo sapiens, Concentration 10 uM; read-out: Cell Viability
Catalogue of compounds with associated viability at 10 µM
Just the number please, in %, no unit attached.

| compound | testTarget | unitAbbrev | viability at 10 µM |
| --- | --- | --- | --- |
| CC(C)(O)c1cncc(-c2nc3ccc(F)cc3n2C2CC2)c1 | Colon cancer organoid | % | 144 |

Query: Please state recorded viability at 10 µM (tested on Colon cancer organoid) of CO[C@@H](C)c1c(Nc2ccc([C@H](N(C)C(=O)C3CCS(=O)(=O)CC3)C(F)(F)F)cc2)cnc2cc(Cl)nn12
Result: 226

Query: Query the reported viability at 10 µM for Colon cancer organoid; item: CCN(CCO)CCCOc1ccc2c(Nc3cc(CC(=O)Nc4cccc(F)c4)[nH]n3)ncnc2c1
Result: 62.1

Query: Form entry - test system: Colon cancer organoid; read-out: viability at 10 µM; compound: O=C1c2ccc(Nc3ccc(F)cc3F)cc2CCc2ccc(OC[C@H](O)CO)cc21 [Skepinone-L]
Result: 143

Query: Which measured viability at 10 µM belongs to CN(C)[C@H]1CCN(c2cc(-c3ccccc3)nc3ccnn23)C1 [(S)-ZINC-3573] , tested on Colon cancer organoid?
Result: 98.9

Query: # query: viability at 10 µM | item CC(C)(C)OC(=O)N1CCCC1CNC1CCC(c2cc(F)ccc2F)(S(=O)(=O)c2ccc(Cl)cc2)CC1 (configuration not stated) | system: Colon cancer organoid
Result: 109

Query: Param readout= viability at 10 µM; system= Colon cancer organoid; entry= C[C@@H]1CN(c2cc(-c3nn(C)c4ccc(OC5(C)CC5)cc34)ncn2)C[C@H](C)O1 ; returns value.
Result: 107

Query: Under Colon cancer organoid: viability at 10 µM value of Cc1cc2c(cc1N1C(=O)c3cccc4c(CCCO)ccc(c34)C1=O)n(C)c(=O)n2C ?
Result: 150

Query: Please provide the recorded viability at 10 µM for CN(C)[C@@H]1CCN(c2cc(-c3ccccc3)nc3ccnn23)C1 [(R)-ZINC-3573] , tested on Colon cancer organoid.
Result: 130

Query: What reported viability at 10 µM corresponds to CNCCN1CCC(c2cc(CN(C)C(=O)c3cccc(Oc4ccccc4)c3)ccn2)CC1 on Colon cancer organoid?
Result: 118

Query: Test system Colon cancer organoid; read-out viability at 10 µM; what value for C[C@H](c1ccnc(Nc2nc3ccc(-c4cc(N(C)C)ncn4)cc3[nH]2)c1)N1CCN(C(=O)CC(F)(F)F)CC1 ?
Result: 160

Query: GET /values?readout=viability at 10 µM&system=Colon cancer organoid&item= CCc1cc2cc(NS(=O)(=O)c3ccc(C#N)cc3)ccc2n(CC)c1=O
Result: 127

Query: Request body: readout viability at 10 µM, system Colon cancer organoid, query Cn1cc(-c2ccc3occ(-c4cccc(-c5ccncc5)c4)c3n2)cn1 . Return the value.
Result: 114

Query: Look up viability at 10 µM with Colon cancer organoid for this compound: CSc1cccnc1N1CCN(Cc2nc3ccccc3[nH]2)CC1
Result: 111

Query: Missing value: viability at 10 µM, Colon cancer organoid, entry Cc1cnc(-c2cc(Cl)ccc2F)cc1-n1c(=O)n(CC(N)=O)c2cnccc21 . Fill in?
Result: 147

Query: Please tell me: viability at 10 µM of CNC(=O)c1cc(C(=O)N[C@H]2[C@@H]3COC[C@@H]32)cc2c1O[C@@H](CF)[C@@H]2c1ccccc1 , system Colon cancer organoid?
Result: 67.7

Query: Test system Colon cancer organoid; read-out viability at 10 µM; what value for O=c1nc(-c2ccccn2)sc2ccccc12 ?
Result: 186

Query: Give the reported viability at 10 µM for CC(=O)N1CCC(c2ccc(C(=O)NC3=NCCN3)cc2C(F)(F)F)CC1 (system: Colon cancer organoid).
Result: 120
